target: Cytochrome P450 3A4 (Homo sapiens, UniProt P08684); settings: Potency;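 also: confirmatory qHTS run detecting inhibitors and substrates of CYP3A4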
Sequence (P08684 whole entry): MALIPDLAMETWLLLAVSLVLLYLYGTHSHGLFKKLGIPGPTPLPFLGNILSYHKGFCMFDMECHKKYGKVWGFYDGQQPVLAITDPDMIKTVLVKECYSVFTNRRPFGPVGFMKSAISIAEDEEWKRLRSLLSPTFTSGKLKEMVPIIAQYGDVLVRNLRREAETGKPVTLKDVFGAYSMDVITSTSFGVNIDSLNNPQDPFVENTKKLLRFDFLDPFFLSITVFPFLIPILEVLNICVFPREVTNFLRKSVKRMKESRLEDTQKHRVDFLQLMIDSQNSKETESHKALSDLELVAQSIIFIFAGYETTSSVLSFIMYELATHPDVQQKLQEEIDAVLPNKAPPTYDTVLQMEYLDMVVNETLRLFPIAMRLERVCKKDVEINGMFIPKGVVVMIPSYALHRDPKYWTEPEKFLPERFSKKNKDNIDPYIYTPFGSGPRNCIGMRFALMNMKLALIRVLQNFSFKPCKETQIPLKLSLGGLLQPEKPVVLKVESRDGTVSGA

MOLECULE	SYSTEM_TESTED	AC50
COC(=O)c1cccc(C23CC4(C2)[C@H](CN(Cc2ccc(C(F)(F)F)cc2)[C@@H]4c2ccccc2)C3c2ccc(C(F)(F)F)cc2)c1 (stereo partly drawn)	Cytochrome P450 3A4 (Homo sapiens, UniProt P08684)	12.6 µM (inconclusive)
COC(=O)[C@@H]1C[C@@]2(O)[C@H](O)[C@H](O)[C@H](O)C[C@H]2N1CC(c1ccccc1)c1ccccc1	Cytochrome P450 3A4 (Homo sapiens, UniProt P08684)	20 µM (inconclusive)
Cc1c(N)cccc1N	Cytochrome P450 3A4 (Homo sapiens, UniProt P08684)	15.8 µM (inconclusive)
